- Test system: CD2F1 mice, L1210 leukemia ip, survival T/C
- ASSAY EXPLANATION: NCI In Vivo Anticancer Drug Screen. Data for tumor model L1210 Leukemia (intraperitoneal) in CD2F1 (CDF1) mice
- SETUP CONDITIONS: endpoint: mean survival time; dose: 25.0 mg/kg/injection; schedule: Q04DX003 (ip); vehicle: saline with Tween-80; higher = longer survival
Inconclusive results and toxic doses are left out.
Assign T/C to each entry below.

Challenge: Give me measured T/C, please, for this compound: `CCOP(=O)(NCCOC)OCC`
Response given: 101 % of control

Challenge: Determine from records and report T/C for `N=C(N)c1cc(Cl)c(OCc2ccccc2)c(Cl)c1`
Response given: 97 % of control

Challenge: Fill in T/C for record CC([NH-])CC(C)[NH-].O=C(O)C(=O)O.[Pt+2] (stereo not drawn)
Response given: 100 % of control
